- procedure-details: label from the status in PepcDB records
reported-metric: protein production

Check out these entries, answers already filled in.
# seq, reported-measurement
data = [
    ("MKVVGLDLGGTKIAAGVFDGKRLLSKVVVPTPKEGGERVAEALAEAAERAEREAGVRGEAIGLGTPGPLDFRRGVIRFAPNIPGVQDFPIRRILEEATGRPVFLENDANAAALAEHHLGAAQGEESSLYLTVSTGIGGGVVLGGRVLRGERGQGGELGHLTLLPGGPACGCGLEGCLEALAAGRALERDATYAFQRPVDTRELFRLFQAGDPKAERLVLQAARYVGIGLASLVKAFDPGVVVLGGGVALNAPEGYWEALLEAYRRYLQGWEAPPLRRARLGAEAGLLGAALTAYLEVKDGSG", "not failed"),
    ("MDNLMLNNKIYLEGTVVSELEFSHEMYGEGFYTFNLEVMRLSDSKDLLNITVSERLITTMDLKIGTEIVVEGQLRSYNKFIDGNNKLILTVFARNIEYCEERSKNPNEIFLDGFICKEPVYRTTPFGREIADLLLAVNRSYNKSDYIPTIAWGRNSRFCKTLEVGDNIRIWGRLQSREYQKKISETEVVKKIAYEVSISKMEKVSVESEQNESGEEISLEHHHHHH", "failed"),
    ("MKSIVIYESVHHGNTEKVAKAMVEELNAECIRAQDLNLEKLKDYDLIGFGSGIFYNKFHKNILKLVGNIGKVNGKKAVVFSTSGQGRESSNKSLRKQLEEKGFKVIGSFACKGFDTFGPLKLLGGIGKGRPDQKDIEEAKKFVLGLEKNLLEHHHHHH", "failed"),
    ("MGYLIGGDIISSSPFTKIFYGSCRKIAVFIFSVLSLTIISGILMYFIEGETGGFTSPSLSIYWAIATLLTVGYGDVVLQTSVGRAMASFVSVLGLSIIVVPIFIVIAEIFGLLSRTFSW", "failed"),
]

If you can, please state the reported protein production value of MDQKEAPSFTEASVHDPSVIKVEDTFYVFGSHLAAAKTEDLRNWTQIATHVHEGNPLIPNVFVELAEAFEWANSNTLWAADVIQLEDGRFYMYYNACQGDAPRSALGVAVADDIEGPYENLGVFLKSGMWGEESPDGTIYDANVHPNAIDPHVFFDEEGKLWMVYGSYSGGIFILEMDPDTGFPLPGQGYGTHLMGGNHSRIEAPYIHYDKETEYYYLYVTFGGLDSTGGYNMRVARSKQPDGPYVDGEGHLMSEVRGAPGTLFDDASIEPYGVKQMGNFLFKRELGERGTGYVSPGHNSVYYDDEVDKIFLFFHTRFPERGEAHEIRVHQMFMNRKGWPVIAPYRYLEHHHHHH .
failed

Which protein production is reported for this sequence? FLTEFINYIKKSKVVLLEDLAFQMGLRTQDAINRIQDLLTEGTLTGVIDDRGKFIYITP
not failed

Requested field: protein production. Item: MKVIILGSGSYSGTPKPLCTCENCTRARINPAFRRTRFSVYIEGGILIDPGPDLHYHLEKLNKEVETILITHAHFDHIFGLPDAQVFKKLTIASNPLGIKVARSLAMLAFNSEAPLGNDWDYVELKFWNEYKVNGVKVIHFPVVHSIEMAGGFLIERKNKTVAITGDTGPEIIRDSEVIDLIKGSDLLISEMTHKESIPKTHLGVNDAIELAKIVKAEQTVFAHISHSNYPQEILEKKVREAKISGIVARDFTIIEI
failed
